test.system: EGFRL858R (Homo sapiens, UniProt P00533, L858R)
Sequence (P00533 25-1210 L858R): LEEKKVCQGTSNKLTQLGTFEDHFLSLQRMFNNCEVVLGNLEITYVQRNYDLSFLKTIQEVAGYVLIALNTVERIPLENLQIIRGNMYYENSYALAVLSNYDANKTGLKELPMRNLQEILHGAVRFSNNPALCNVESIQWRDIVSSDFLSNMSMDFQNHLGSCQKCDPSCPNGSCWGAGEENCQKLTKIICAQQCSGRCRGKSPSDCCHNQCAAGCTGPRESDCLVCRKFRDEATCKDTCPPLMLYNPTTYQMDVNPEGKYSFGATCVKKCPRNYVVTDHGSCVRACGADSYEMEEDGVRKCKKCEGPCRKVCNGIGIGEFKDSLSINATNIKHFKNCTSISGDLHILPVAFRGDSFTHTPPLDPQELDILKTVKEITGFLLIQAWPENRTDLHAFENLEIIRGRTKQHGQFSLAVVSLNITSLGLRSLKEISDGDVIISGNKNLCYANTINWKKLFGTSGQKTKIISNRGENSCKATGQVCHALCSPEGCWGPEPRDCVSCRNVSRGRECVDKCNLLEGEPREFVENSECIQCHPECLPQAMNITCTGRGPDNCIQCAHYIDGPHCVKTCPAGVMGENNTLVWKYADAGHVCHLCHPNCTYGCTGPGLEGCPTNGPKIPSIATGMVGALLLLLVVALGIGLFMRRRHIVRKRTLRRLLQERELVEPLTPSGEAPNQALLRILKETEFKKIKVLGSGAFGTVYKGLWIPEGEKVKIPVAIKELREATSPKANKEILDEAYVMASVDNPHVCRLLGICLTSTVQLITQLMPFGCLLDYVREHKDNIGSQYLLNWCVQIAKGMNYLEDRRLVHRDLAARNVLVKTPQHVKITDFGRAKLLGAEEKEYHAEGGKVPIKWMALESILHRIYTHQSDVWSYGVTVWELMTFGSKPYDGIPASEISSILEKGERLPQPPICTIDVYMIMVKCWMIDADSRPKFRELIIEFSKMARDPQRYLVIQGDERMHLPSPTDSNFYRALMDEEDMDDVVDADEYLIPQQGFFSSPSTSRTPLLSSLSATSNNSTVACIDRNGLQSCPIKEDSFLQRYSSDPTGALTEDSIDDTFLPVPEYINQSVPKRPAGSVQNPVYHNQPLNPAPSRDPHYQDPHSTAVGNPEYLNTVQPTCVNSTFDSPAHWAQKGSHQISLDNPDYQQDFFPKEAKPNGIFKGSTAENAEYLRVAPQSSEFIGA
experimental.details: In vitro enzymatic activity assay (Z'-LYTE), EGFR L858R
condition.details: Z'-LYTE FRET peptide assay; read-out: EGFRL858R kinase activity (IC50)
quantity.kind: IC50

>  <sample.smiles>
CCC(=O)Nc1cccc(N2C(=O)N(C)Cc3cnc(Nc4ccc(N5CCN(C)CC5)cc4OC)nc32)c1

>  <quantity.kind>
IC50

>  <data.value>
1000 to 10000 nM

$$$$
>  <sample.smiles>
C=CC(=O)Nc1cccc(N2C(=O)N(c3ccc(-c4ccccc4)cc3)Cc3cnc(Nc4ccc(N5CCN(C)CC5)cc4OC)nc32)c1

>  <quantity.kind>
IC50

>  <data.value>
≤ 10 nM

$$$$
>  <sample.smiles>
C=CC(=O)Nc1cccc(N2C(=O)N(Cc3ccccc3)Cc3cnc(Nc4ccc(N5CCN(C)CC5)cc4OC)nc32)c1

>  <quantity.kind>
IC50

>  <data.value>
≤ 10 nM

$$$$
>  <sample.smiles>
C=CC(=O)Nc1cccc(N2C(=O)N(c3cccc4ccccc34)Cc3cnc(Nc4ccc(N5CCN(C)CC5)cc4OC)nc32)c1

>  <quantity.kind>
IC50

>  <data.value>
≤ 10 nM

$$$$
>  <sample.smiles>
C=CC(=O)Nc1cccc(N2C(=O)N(C)Cc3cnc(Nc4ccc(N5CCCCC5)cc4)nc32)c1

>  <quantity.kind>
IC50

>  <data.value>
≤ 10 nM

$$$$
>  <sample.smiles>
C=CC(=O)Nc1cccc(N2C(=O)N(C)Cc3cnc(Nc4ccc(N5CCCCC5)cc4OC)nc32)c1

>  <quantity.kind>
IC50

>  <data.value>
10 to 100 nM

$$$$
>  <sample.smiles>
C=CC(=O)Nc1cccc(N2C(=O)N(c3cccc([N+](=O)[O-])c3)Cc3cnc(Nc4ccc(N5CCN(C)CC5)cc4OC)nc32)c1

>  <quantity.kind>
IC50

>  <data.value>
≤ 10 nM

$$$$
>  <sample.smiles>
C=CC(=O)Nc1cccc(N2C(=O)N(C)Cc3cnc(NC)nc32)c1

>  <quantity.kind>
IC50

>  <data.value>
100 to 1000 nM

$$$$
>  <sample.smiles>
C=CC(=O)Nc1cccc(N2C(=O)N(C(C)C)Cc3cnc(Nc4ccc(N5CCN(C)CC5)cc4OC)nc32)c1

>  <quantity.kind>
IC50

>  <data.value>
≤ 10 nM

$$$$
>  <sample.smiles>
C=CC(=O)Nc1ccc(F)c(N2C(=O)N(Cc3ccccc3)Cc3cnc(Nc4ccc(N5CCN(C)CC5)cc4OC)nc32)c1

>  <quantity.kind>
IC50

>  <data.value>
≤ 10 nM

$$$$
>  <sample.smiles>
C=CC(=O)Nc1cccc(N2C(=O)N(c3ccc(Oc4ccccc4)cc3)Cc3cnc(Nc4ccc(N5CCN(C)CC5)cc4OC)nc32)c1

>  <quantity.kind>
IC50

>  <data.value>
≤ 10 nM

$$$$
>  <sample.smiles>
C=CC(=O)Nc1cccc(N2C(=O)N(C)Cc3cnc(Nc4ccc(N5CCN(C)CC5)cc4OCC)nc32)c1

>  <quantity.kind>
IC50

>  <data.value>
≤ 10 nM

$$$$
>  <sample.smiles>
C=CC(=O)Nc1cccc(N2C(=O)N(C)Cc3cnc(Nc4ccc(N5CCSCC5)cc4)nc32)c1

>  <quantity.kind>
IC50

>  <data.value>
≤ 10 nM

$$$$
>  <sample.smiles>
C=CC(=O)Nc1cccc(N2C(=O)N(C)Cc3cnc(Nc4ccc(N5CCN(C)CC5)cc4OC(C)C)nc32)c1

>  <quantity.kind>
IC50

>  <data.value>
10 to 100 nM

$$$$
>  <sample.smiles>
COc1cc(N2CCN(C)CC2)ccc1Nc1ncc2c(n1)N(c1cccc(N)c1)C(=O)N(C)C2

>  <quantity.kind>
IC50

>  <data.value>
100 to 1000 nM

$$$$
>  <sample.smiles>
C=CC(=O)Nc1cccc(N2C(=O)N(C)Cc3cnc(Nc4ccc(OCCN5CCOCC5)cc4OC)nc32)c1

>  <quantity.kind>
IC50

>  <data.value>
≤ 10 nM

$$$$
>  <sample.smiles>
C=CC(=O)Nc1cccc(N2C(=O)N(C)Cc3cnc(Nc4ccc(N5CC[C@H](N(C)C)C5)cc4OC)nc32)c1

>  <quantity.kind>
IC50

>  <data.value>
≤ 10 nM

$$$$
>  <sample.smiles>
C=CC(=O)Nc1cccc(N2C(=O)N(C)Cc3cnc(Nc4ccc(N5CCN(C)CC5)cc4)nc32)c1

>  <quantity.kind>
IC50

>  <data.value>
≤ 10 nM

$$$$
>  <sample.smiles>
C=CC(=O)Nc1cccc(N2C(=O)N(C)Cc3cnc(Nc4ccc(N5CCN(C)CC5)cc4OC)nc32)c1

>  <quantity.kind>
IC50

>  <data.value>
≤ 10 nM

$$$$
>  <sample.smiles>
C=CC(=O)Nc1cccc(N2C(=O)N(C)Cc3cnc(Nc4ccc(N5CCOCC5)cc4)nc32)c1

>  <quantity.kind>
IC50

>  <data.value>
≤ 10 nM

$$$$
>  <sample.smiles>
C=CC(=O)Nc1cccc(N2C(=O)N(c3ccc(F)c(Cl)c3)Cc3cnc(Nc4ccc(N5CCN(C)CC5)cc4OC)nc32)c1

>  <quantity.kind>
IC50

>  <data.value>
≤ 10 nM

$$$$
>  <sample.smiles>
C=CC(=O)Nc1cccc(N2C(=O)N(C)Cc3cnc(Nc4ccc(N5CCC(N6CCN(C)CC6)CC5)cc4)nc32)c1

>  <quantity.kind>
IC50

>  <data.value>
≤ 10 nM

$$$$
>  <sample.smiles>
C=CC(=O)Nc1cccc(N2C(=O)N(C)Cc3cnc(Nc4ccc(N5CCN(C(C)=O)CC5)cc4OC)nc32)c1

>  <quantity.kind>
IC50

>  <data.value>
≤ 10 nM

$$$$
>  <sample.smiles>
C=CC(=O)Nc1cccc(N2C(=O)N(C)Cc3cnc(Nc4ccccc4)nc32)c1

>  <quantity.kind>
IC50

>  <data.value>
10 to 100 nM

$$$$
>  <sample.smiles>
C=CC(=O)Nc1cccc(N2C(=O)N(C)Cc3cnc(Nc4ccc(N5CCN(C)CC5)cc4F)nc32)c1

>  <quantity.kind>
IC50

>  <data.value>
≥ 10000 nM

$$$$
>  <sample.smiles>
C=CC(=O)Nc1cccc(N2C(=O)N(C)Cc3cnc(Nc4ccc(N5CCN(C)CC5)cc4C)nc32)c1

>  <quantity.kind>
IC50

>  <data.value>
≤ 10 nM

$$$$
>  <sample.smiles>
C=CC(=O)Nc1cccc(N2C(=O)N(C)Cc3cnc(N4CCN(C)CC4)nc32)c1

>  <quantity.kind>
IC50

>  <data.value>
≥ 10000 nM

$$$$
>  <sample.smiles>
C=CC(=O)Nc1cccc(N2C(=O)N(c3ccc(OC)cc3)Cc3cnc(Nc4ccc(N5CCN(C)CC5)cc4OC)nc32)c1

>  <quantity.kind>
IC50

>  <data.value>
≤ 10 nM

$$$$
>  <sample.smiles>
C=CC(=O)Nc1cccc(N2C(=O)N(c3ccc(OCc4ccccc4)cc3)Cc3cnc(Nc4ccc(N5CCN(C)CC5)cc4OC)nc32)c1

>  <quantity.kind>
IC50

>  <data.value>
≤ 10 nM

$$$$

---

System: A431 (Human epidermal carcinoma, EGFR high expression)
experimental.details: Cell proliferation by MTT, A431
Type: cell-based
condition.details: A-431, read-out: A431 50% inhibitory concentration (IC50), 72 h
pIC50: −log10 of the molar value.
# binarize pIC50: threshold 5 inclusive, high side YES, low side NO

>  <sample.smiles>
C=CC(=O)Nc1cccc(N2C(=O)N(C)Cc3cnc(Nc4ccc(N5CCC(N6CCN(C)CC6)CC5)cc4OC)nc32)c1

>  <assigned.class>
NO

$$$$
>  <sample.smiles>
C=CC(=O)Nc1cccc(N2C(=O)N(C)Cc3cnc(Nc4ccc(OCCOC)cc4OC)nc32)c1

>  <assigned.class>
NO

$$$$
>  <sample.smiles>
C=CC(=O)Nc1cccc(N2C(=O)N(C)Cc3cnc(Nc4ccc(N5CCC(N(C)C)CC5)cc4OC)nc32)c1

>  <assigned.class>
NO

$$$$
>  <sample.smiles>
C=CC(=O)Nc1cccc(N2C(=O)N(c3ccc(OC)cc3)Cc3cnc(Nc4ccc(N5CCN(C)CC5)cc4OC)nc32)c1

>  <assigned.class>
YES

$$$$
>  <sample.smiles>
C=CC(=O)Nc1cccc(N2C(=O)N(C)Cc3cnc(Nc4ccccc4)nc32)c1

>  <assigned.class>
YES

$$$$
>  <sample.smiles>
C=CC(=O)Nc1cccc(N2C(=O)N(C)Cc3cnc(Nc4ccc(N5CCN(C)CC5)cc4)nc32)c1

>  <assigned.class>
YES

$$$$
>  <sample.smiles>
C=CC(=O)Nc1cccc(N2C(=O)N(C)Cc3cnc(Nc4ccc(N5CCC(N(C)C)CC5)cc4)nc32)c1

>  <assigned.class>
NO

$$$$
>  <sample.smiles>
C=CC(=O)Nc1cccc(N2C(=O)N(C)Cc3cnc(Nc4ccc(N5CCN(C)CC5)cc4F)nc32)c1

>  <assigned.class>
NO

$$$$

---

// values below are reported pIC50
test.system: EGFRL858R + T790M (Homo sapiens, UniProt P00533, L858R/T790M)
Sequence (P00533 25-1210 T790M/L858R): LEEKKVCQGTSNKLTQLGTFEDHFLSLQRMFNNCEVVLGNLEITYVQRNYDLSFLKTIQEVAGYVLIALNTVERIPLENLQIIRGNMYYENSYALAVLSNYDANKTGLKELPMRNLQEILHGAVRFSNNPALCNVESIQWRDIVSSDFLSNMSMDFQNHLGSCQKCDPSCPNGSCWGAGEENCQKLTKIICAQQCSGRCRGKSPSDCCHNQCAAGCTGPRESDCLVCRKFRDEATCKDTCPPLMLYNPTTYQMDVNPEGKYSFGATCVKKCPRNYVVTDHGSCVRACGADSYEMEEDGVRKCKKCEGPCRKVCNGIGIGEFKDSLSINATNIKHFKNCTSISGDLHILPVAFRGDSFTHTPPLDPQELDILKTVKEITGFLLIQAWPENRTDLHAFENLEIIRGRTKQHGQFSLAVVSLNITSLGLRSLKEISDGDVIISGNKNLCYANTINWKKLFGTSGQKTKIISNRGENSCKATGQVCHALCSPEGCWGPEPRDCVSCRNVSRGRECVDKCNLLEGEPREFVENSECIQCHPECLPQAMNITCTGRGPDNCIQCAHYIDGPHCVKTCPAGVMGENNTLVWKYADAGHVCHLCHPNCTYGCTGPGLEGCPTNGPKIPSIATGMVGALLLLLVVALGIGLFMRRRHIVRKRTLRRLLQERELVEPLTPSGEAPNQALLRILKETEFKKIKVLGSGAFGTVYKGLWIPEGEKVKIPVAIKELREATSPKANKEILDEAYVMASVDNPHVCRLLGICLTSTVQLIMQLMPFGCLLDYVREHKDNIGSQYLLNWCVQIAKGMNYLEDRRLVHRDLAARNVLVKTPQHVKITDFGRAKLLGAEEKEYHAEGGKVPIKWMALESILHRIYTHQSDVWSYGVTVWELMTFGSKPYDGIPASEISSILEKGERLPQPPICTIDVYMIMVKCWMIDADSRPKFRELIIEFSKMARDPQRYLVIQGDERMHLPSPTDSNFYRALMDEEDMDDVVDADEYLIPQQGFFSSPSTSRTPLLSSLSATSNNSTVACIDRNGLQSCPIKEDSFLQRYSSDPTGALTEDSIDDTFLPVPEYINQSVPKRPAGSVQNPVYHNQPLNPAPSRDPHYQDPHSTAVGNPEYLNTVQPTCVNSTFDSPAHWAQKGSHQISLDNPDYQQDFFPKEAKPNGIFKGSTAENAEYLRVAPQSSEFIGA
experimental.details: In vitro enzymatic activity assay (Z'-LYTE), EGFR L858R + T790M
Assay type: biochemical
condition.details: Z'-LYTE FRET peptide assay; read-out: EGFRL858R + T790M kinase activity (IC50)
pIC50: −log10 of the molar value.
quantity.kind: pIC50

>  <sample.smiles>
C=CC(=O)Nc1cccc(N2C(=O)N(C)Cc3cnc(Nc4ccc(N5CCC(N(C)C)CC5)cc4)nc32)c1

>  <data.value>
≥ 8.00

$$$$
>  <sample.smiles>
C=CC(=O)Nc1cccc(N2C(=O)N(C)Cc3cnc(Nc4ccc(N5CCOCC5)cc4OC)nc32)c1

>  <data.value>
7.00 to 8.00

$$$$
>  <sample.smiles>
C=CC(=O)Nc1cccc(N2C(=O)N(C)Cc3cnc(Nc4ccc(N5CCN(C)CC5)cc4OCC)nc32)c1

>  <data.value>
≥ 8.00

$$$$
>  <sample.smiles>
CCC(=O)Nc1cccc(N2C(=O)N(C)Cc3cnc(Nc4ccc(N5CCN(C)CC5)cc4OC)nc32)c1

>  <data.value>
5.00 to 6.00

$$$$
>  <sample.smiles>
C=CC(=O)Nc1cccc(N2C(=O)N(C)Cc3cnc(Nc4ccc(N5CC[C@H](N(C)C)C5)cc4OC)nc32)c1

>  <data.value>
≥ 8.00

$$$$
>  <sample.smiles>
C=CC(=O)Nc1cccc(N2C(=O)N(c3cccc(Cl)c3)Cc3cnc(Nc4ccc(N5CCN(C)CC5)cc4OC)nc32)c1

>  <data.value>
≥ 8.00

$$$$
>  <sample.smiles>
C=CC(=O)Nc1cccc(N2C(=O)N(C)Cc3cnc(Nc4ccc(N(C)C)cc4OC)nc32)c1

>  <data.value>
7.00 to 8.00

$$$$
>  <sample.smiles>
C=CC(=O)Nc1cccc(N2C(=O)N(C)Cc3cnc(Nc4ccc(N5CC[C@@H](N(C)C)C5)cc4OC)nc32)c1

>  <data.value>
≥ 8.00

$$$$
>  <sample.smiles>
C=CC(=O)Nc1cccc(N2C(=O)N(C)Cc3cnc(Nc4ccc(N5CCSCC5)cc4OC)nc32)c1

>  <data.value>
7.00 to 8.00

$$$$
>  <sample.smiles>
C=CC(=O)Nc1cccc(N2C(=O)N(c3ccccc3)Cc3cnc(Nc4ccc(N5CCN(C)CC5)cc4OC)nc32)c1

>  <data.value>
≥ 8.00

$$$$
>  <sample.smiles>
C=CC(=O)Nc1cccc(N2C(=O)N(C)Cc3cnc(Nc4ccc(N5CCCC5)cc4OC)nc32)c1

>  <data.value>
7.00 to 8.00

$$$$
>  <sample.smiles>
C=CC(=O)Nc1cccc(N2C(=O)N(C)Cc3cnc(Nc4ccc(N5CCC(N(C)C)CC5)cc4OC)nc32)c1

>  <data.value>
≥ 8.00

$$$$
>  <sample.smiles>
C=CC(=O)Nc1cccc(N2C(=O)N(C)Cc3cnc(Nc4ccc(N5CCN(C)CC5)cc4F)nc32)c1

>  <data.value>
5.00 to 6.00

$$$$
>  <sample.smiles>
C=CC(=O)Nc1cccc(N2C(=O)N(C)Cc3cnc(NC)nc32)c1

>  <data.value>
6.00 to 7.00

$$$$
>  <sample.smiles>
C=CC(=O)Nc1cccc(N2C(=O)N(c3ccccc3C)Cc3cnc(Nc4ccc(N5CCN(C)CC5)cc4OC)nc32)c1

>  <data.value>
≥ 8.00

$$$$
